These entries and their values trace back to patent US8022239B2.

biological target: autotaxin (ATX) (Homo sapiens); construct: concentrated conditioned serum-free medium (CCM) from MDA MB-435 cells as the source of ATX; endogenous in cells; host or cells: MDA-MB-435 cells (serum-free conditioned medium, concentrated ~10 fold); assay: Autotaxin inactivation analysis: ATX-mediated hydrolysis of FS-3 (fluorescence), concentrated conditioned medium from MDA MB-435 cells as ATX source; assay type: biochemical; conditions: 30 uM, time 3 hours; FS-3 substrate
Class 1.0: Fluorescence (% Response) at least 20%. Class 0.0: Fluorescence (% Response) below 20%.

Problem: For this compound, is measured Fluorescence (% Response) 20% or higher? CCCCCCCCCCCCCCCCCCOP(=O)(O)Oc1ccc(CF)cc1
Result: 0.0

Problem: For this compound, is measured Fluorescence (% Response) 20% or higher? CCCCCCCCCCCCCCOP(=O)(O)Oc1ccc(C(F)F)cc1
Result: 0.0

Problem: For this compound, is measured Fluorescence (% Response) 20% or higher? CCCCCCCCCCCCOP(=O)(O)Oc1ccc(C(F)F)cc1
Result: 1.0

Problem: For this compound, is measured Fluorescence (% Response) 20% or higher? CCCCCCCCCCCCOP(=O)(O)Oc1ccc(CF)cc1
Result: 1.0

Problem: For this compound, is measured Fluorescence (% Response) 20% or higher? CCCCCCCCCCCCCCCCOP(=O)(O)Oc1ccc(C(F)F)cc1
Result: 0.0

Problem: For this compound, is measured Fluorescence (% Response) 20% or higher? CCCCCCCCCCCCCCOP(=O)(O)Oc1ccc(CF)cc1
Result: 1.0

Problem: For this compound, is measured Fluorescence (% Response) 20% or higher? CCCCCCCCCCCCCCCCOP(=O)(O)Oc1ccccc1CF
Result: 0.0

Problem: For this compound, is measured Fluorescence (% Response) 20% or higher? CCCCCCCCCCCCCCCCOP(=O)(O)Oc1ccc(CF)cc1
Result: 0.0

----------
target: autotaxin (ATX) (Homo sapiens, UniProt Q13822); construct: concentrated conditioned serum-free medium (CCM) from MDA MB-435 cells as the source of ATX; endogenous in cells; host or cells: MDA-MB-435 cells (serum-free conditioned medium, concentrated ~10 fold); assay: Autotaxin inactivation analysis: ATX-mediated hydrolysis of FS-3 (fluorescence), concentrated conditioned medium from MDA MB-435 cells as ATX source; format: biochemical; settings: 3 uM, time 0 hour; FS-3 substrate; low % response = effective inhibition
Class Condition met: Fluorescence (% Response) at least 90%. Class Condition not met: Fluorescence (% Response) below 90%.

Problem: For this molecule, is measured Fluorescence (% Response) 90% or higher? CCCCCCCCCCCCCCCCCCOP(=O)(O)Oc1ccc(CF)cc1 [Example 2, (18:0)-p-monofluorophosphodiester]
Result: Condition not met

Problem: For this molecule, is measured Fluorescence (% Response) 90% or higher? CCCCCCCCCCCCOP(=O)(O)Oc1ccc(CF)cc1 [Example 8, (12:0)-p-monofluorophosphodiester]
Result: Condition met

Problem: For this molecule, is measured Fluorescence (% Response) 90% or higher? CCCCCCCCCCCCCCCCOP(=O)(O)Oc1ccc(CF)cc1 [Example 4, (16:0)-p-monofluorophosphodiester]
Result: Condition not met

Problem: For this molecule, is measured Fluorescence (% Response) 90% or higher? CCCCCCCCCCCCCCCCOP(=O)(O)Oc1ccc(C(F)F)cc1 [Example 3, (16:0)-p-difluorophosphodiester]
Result: Condition met

Problem: For this molecule, is measured Fluorescence (% Response) 90% or higher? CCCCCCCCCCCCCCOP(=O)(O)Oc1ccc(CF)cc1 [Example 6, (14:0)-p-monofluorophosphodiester]
Result: Condition met

Problem: For this molecule, is measured Fluorescence (% Response) 90% or higher? CCCCCCCCCCCCCCCCOP(=O)(O)Oc1ccccc1CF [Example 10, (16:0)-o-monofluorophosphodiester]
Result: Condition not met

Problem: For this molecule, is measured Fluorescence (% Response) 90% or higher? CCCCCCCCCCCCOP(=O)(O)Oc1ccc(C(F)F)cc1 [Example 7, (12:0)-p-difluorophosphodiester]
Result: Condition met

----------
Target: autotaxin (ATX) (Homo sapiens)
Construct: concentrated conditioned serum-free medium (CCM) from MDA MB-435 cells as the source of ATX; endogenous in cells; host or cells: MDA-MB-435 cells (serum-free conditioned medium, concentrated ~10 fold)
Experiment: Autotaxin inactivation analysis: ATX-mediated hydrolysis of FS-3 (fluorescence), concentrated conditioned medium from MDA MB-435 cells as ATX source
Type: biochemical
Settings: 30 uM, time 6 hours; FS-3 substrate
Procedure: The test protocol was as follows: […] ATX inhibition was assayed using FS-3 (Echelon Biosciences, Inc., Salt Lake City, Utah, USA) as a substrate and ˜10 times concentrated conditioned serum-free medium (CCM) from MDA MB-435 cells as the source of ATX. […] Fluorescence was read at 5 minute intervals by a Synergy2 system (BioTek, Winooski, Vt.) with excitation and emission wavelengths of 485 and 538 nm, respectively. […]
Would you kindly list Fluorescence (% Response) for each of these compounds?
Give the value, in units of %, as a plain number.

Problem: Which Fluorescence (% Response) value belongs to CCCCCCCCCCCCCCCCOP(=O)(O)Oc1ccc(CF)cc1 [Example 4, (16:0)-p-monofluorophosphodiester] ?
Result: −2.1

Problem: Which Fluorescence (% Response) value belongs to CCCCCCCCCCCCCCOP(=O)(O)Oc1ccc(C(F)F)cc1 [Example 5, (14:0)-p-difluorophosphodiester] ?
Result: 9.6

Problem: Which Fluorescence (% Response) value belongs to CCCCCCCCCCCCCCCCCCOP(=O)(O)Oc1ccc(CF)cc1 [Example 2, (18:0)-p-monofluorophosphodiester] ?
Result: −2.1

Problem: Which Fluorescence (% Response) value belongs to CCCCCCCCCCCCCCOP(=O)(O)Oc1ccc(CF)cc1 [Example 6, (14:0)-p-monofluorophosphodiester] ?
Result: 18.5

----------
target: autotaxin (ATX) (Homo sapiens); construct: concentrated conditioned serum-free medium (CCM) from MDA MB-435 cells as the source of ATX; endogenous in cells; host or cells: MDA-MB-435 cells (serum-free conditioned medium, concentrated ~10 fold); test: Autotaxin inactivation analysis: ATX-mediated hydrolysis of FS-3 (fluorescence), concentrated conditioned medium from MDA MB-435 cells as ATX source; format: biochemical; details: 30 uM, time 0 hour; FS-3 substrate
Binned Fluorescence (% Response); ranges: low bin: < 30%; mid bin: ≥ 30% and < 70%; high bin: ≥ 70%

Problem: Would you mind sorting CCCCCCCCCCCCCCOP(=O)(O)Oc1ccc(C(F)F)cc1 [Example 5, (14:0)-p-difluorophosphodiester] into the appropriate category?
Result: low bin

Problem: Would you mind sorting CCCCCCCCCCCCCCCCOP(=O)(O)Oc1ccc(CF)cc1 [Example 4, (16:0)-p-monofluorophosphodiester] into the appropriate category?
Result: low bin

Problem: Would you mind sorting CCCCCCCCCCCCCCCCCCOP(=O)(O)Oc1ccc(C(F)F)cc1 [Example 1, (18:0)-p-difluorophosphodiester] into the appropriate category?
Result: high bin

Problem: Would you mind sorting CCCCCCCCCCCCOP(=O)(O)Oc1ccc(C(F)F)cc1 [Example 7, (12:0)-p-difluorophosphodiester] into the appropriate category?
Result: mid bin

Problem: Would you mind sorting CCCCCCCCCCCCCCCCCCOP(=O)(O)Oc1ccc(CF)cc1 [Example 2, (18:0)-p-monofluorophosphodiester] into the appropriate category?
Result: mid bin

Problem: Would you mind sorting CCCCCCCCCCCCOP(=O)(O)Oc1ccc(CF)cc1 [Example 8, (12:0)-p-monofluorophosphodiester] into the appropriate category?
Result: high bin

Problem: Would you mind sorting CCCCCCCCCCCCCCCCOP(=O)(O)Oc1ccccc1CF [Example 10, (16:0)-o-monofluorophosphodiester] into the appropriate category?
Result: low bin

Problem: Would you mind sorting CCCCCCCCCCCCCCOP(=O)(O)Oc1ccc(CF)cc1 [Example 6, (14:0)-p-monofluorophosphodiester] into the appropriate category?
Result: mid bin

----------
Would you kindly list Fluorescence (% Response) for each of these molecules?
target: autotaxin (ATX) (Homo sapiens, UniProt Q13822); construct: concentrated conditioned serum-free medium (CCM) from MDA MB-435 cells as the source of ATX; endogenous in cells; host or cells: MDA-MB-435 cells (serum-free conditioned medium, concentrated ~10 fold); test: Autotaxin inactivation analysis: ATX-mediated hydrolysis of FS-3 (fluorescence), concentrated conditioned medium from MDA MB-435 cells as ATX source; assay type: biochemical; details: 30 uM, time 1 hour; FS-3 substrate
Give the value, in units of %, as a plain number.

Problem: Which Fluorescence (% Response) value belongs to CCCCCCCCCCCCOP(=O)(O)Oc1ccc(C(F)F)cc1 ?
Result: 36.2

Problem: Which Fluorescence (% Response) value belongs to CCCCCCCCCCCCCCCCOP(=O)(O)Oc1ccc(CF)cc1 ?
Result: 12.5

Problem: Which Fluorescence (% Response) value belongs to CCCCCCCCCCCCCCCCCCOP(=O)(O)Oc1ccc(CF)cc1 ?
Result: 35.4

Problem: Which Fluorescence (% Response) value belongs to CCCCCCCCCCCCCCCCOP(=O)(O)Oc1ccc(C(F)F)cc1 ?
Result: 37.5
